These measurements were taken from ChEMBL document CHEMBL1201862.

- Tested on: SR
- experiment description: NCI tumour cell line growth inhibition, 48 h
The source made the active and inactive calls. Rule as the data show it: active = GI50 up to about 1.1 µM and inactive = higher.
Please respond with reported GI50 for every item in the list.

GI50 for c1ccc(/N=C(\N2CCCC2)N(CCN2CCCC2)c2ccccc2)cc1 is 13.2 µM (inactive)

GI50 for CCOC(=O)C(C#N)C1=CC(=O)C(=O)c2ccc(O)cc21 (stereo not drawn) is > 100 µM (inactive)

GI50 for N=C(N)N/N=C/c1oc(-c2ccc(S(=O)(=O)O)o2)c(-c2ccc(S(=O)(=O)O)o2)c1[N+](=O)[O-] is > 100 µM (inactive)

----------
- Test system: K562
- experiment description: NCI tumour cell line growth inhibition, 48 h
Activity calls are given as the source filed them. Rule as the data show it: active = GI50 up to about 1.1 µM and inactive = higher.
Please answer using one outcome listed in class 1 = active, class 0 = inactive

Query block: Identify the outcome logged in this assay for the compound shown: O=c1cc(NNc2ccccc2F)[nH]c(=O)[nH]1
Result block: class 0

Query block: Identify the outcome logged in this assay for the compound shown: COC(=O)[C@@]12CN(C)[C@@H](C(C)(C)C)N1C(=O)OC2c1ccccc1 (some centres not stated)
Result block: class 0

Query block: Identify the outcome logged in this assay for the compound shown: COc1ccc(-c2oc(/C=N/NC(N)=S)c([N+](=O)[O-])c2-c2ccc(OC)c(OC)c2)cc1OC
Result block: class 0

Query block: Identify the outcome logged in this assay for the compound shown: CCCCc1c2c(nc3c1CC/C(=C\c1ccc([N+](=O)[O-])cc1)C3=O)CCCC2
Result block: class 0

Query block: Identify the outcome logged in this assay for the compound shown: FC1(F)SC2CCCCCCCCCCC2C1(F)F (configuration not stated)
Result block: class 0

Query block: Identify the outcome logged in this assay for the compound shown: CC(C)OC(=O)C1=C2c3ncccc3C(=O)N2[C@@H](Cl)[C@@H](Cl)[C@@H]1Cl
Result block: class 0

Query block: Identify the outcome logged in this assay for the compound shown: Cc1cccc(C)c1NC(=O)/C=C/c1ccccc1
Result block: class 0

Query block: Identify the outcome logged in this assay for the compound shown: CN(CCCNC(=O)c1cc(-c2ccccc2)nc2ccccc12)CCCNC(=O)c1cc(-c2ccccc2)nc2ccccc12
Result block: class 0

Query block: Identify the outcome logged in this assay for the compound shown: CC(=O)OC1C(O)C(C)OC(OC(=O)C2CCC3C(C2)OC2(CC(OC(=O)/C=C/c4ccccc4)C(C)CO2)C32CO2)C1OC1OC(C)C(O)C(O)C1O (configuration not stated)
Result block: class 1

Query block: Identify the outcome logged in this assay for the compound shown: Nc1nc(S)c2c(N)n[nH]c2c1C(=O)Nc1ccc(Cl)cc1
Result block: class 0

Query block: Identify the outcome logged in this assay for the compound shown: NC(=O)C12CC3CC(CC(F)(C3)C1)C2
Result block: class 0

Query block: Identify the outcome logged in this assay for the compound shown: O=C(CC/C(CC(=O)c1ccc(Cl)cc1)=N/O)Nc1ccc(Cl)c(Cl)c1
Result block: class 0

Query block: Identify the outcome logged in this assay for the compound shown: COc1cc(C(=O)C/C(CCCC(=O)Nc2ccccc2[N+](=O)[O-])=N/NC(=O)c2cc3ccccc3cc2O)ccc1O
Result block: class 0

Query block: Identify the outcome logged in this assay for the compound shown: CCOC(=O)CCC(NC(=O)c1ccc(Oc2nc3ccccc3nc2-c2ccccc2)cc1)C(=O)OCC (configuration not stated)
Result block: class 0

Query block: Identify the outcome logged in this assay for the compound shown: CC(C)(C)OC(=O)N(O)CCCn1cnc2c(NC3CC3)ncnc21
Result block: class 0

Query block: Identify the outcome logged in this assay for the compound shown: COc1ccc(OC)c(N(CN2C(=O)CCC2C(=O)O)C(C)=O)c1 (configuration not stated)
Result block: class 0

Query block: Identify the outcome logged in this assay for the compound shown: COc1ccc(-c2oc3c(OC)c(OC)c(OC)c(OC)c3c(=O)c2OC)cc1OC [3,5,6,7,8,3',4'-HEPTAMETHOXYFLAVONE]
Result block: class 0

Query block: Identify the outcome logged in this assay for the compound shown: COC1/C=C\C=C(/C)C(=O)NC2=CC(=O)C(N)=C(CC(C)CC(OC)C(O)C(C)C=C(C)C1OC(N)=O)C2=O (configuration not stated)
Result block: class 1

Query block: Identify the outcome logged in this assay for the compound shown: CC12Cc3cc4c(cc3C1(c1ccc([N+](=O)[O-])cc1)OCCO2)OCO4 (configuration not stated)
Result block: class 0

Query block: Identify the outcome logged in this assay for the compound shown: CCOC(=O)C12C(=O)CCN1CCc1ccccc1C2C (configuration not stated)
Result block: class 0

Query block: Identify the outcome logged in this assay for the compound shown: C=C(CN(C)C)C(=O)c1ccc(OC2OC(COC(C)=O)C(OC(C)=O)C(OC(C)=O)C2OC(C)=O)cc1 (configuration not stated)
Result block: class 1

Query block: Identify the outcome logged in this assay for the compound shown: COC(=O)[C@H]1NC(=O)CCSSC1(C)C
Result block: class 0
